Measured GI50 by item
System: HL-60
Test protocol: NCI tumour cell line growth inhibition, 48 h
Calls of active or inactive are those of the source. Cut-off read from the data, not from the text of the source: active = GI50 up to about 1.1 µM and inactive = higher.
Quantity measured: GI50

O=[N+]([O-])c1ccc(Sc2c3ccccc3nc3ccccc23)cc1 :: 46.5 µM (inactive)
O/N=C1/C(=C/c2ccc3c(c2)OCO3)CCCC1C(NO)c1ccc2c(c1)OCO2 (configuration not stated) :: 15.9 µM (inactive)
N#CCc1nc(-c2cc3ccc(O)cc3oc2=O)cs1 :: 29.2 µM (inactive)
CC(=O)NC1=C(NCCN(C)C)C(=O)c2ccccc2C1=O :: 9.79 µM (inactive)
ON=C(CC(O)(C(F)(F)Cl)C(F)(F)Cl)CC(O)(C(F)(F)Cl)C(F)(F)Cl :: 4.1 µM (inactive)
Nc1ccccc1C(=O)CC1OC(=O)c2ccccc21 (configuration not stated) :: > 100 µM (inactive)
NC(=O)C(c1ccccc1)N1OC2C(=O)N(c3ccccc3)C(=O)C2C1c1c2ccccc2c(Cl)c2ccccc12 (configuration not stated) :: > 100 µM (inactive)

---

Test system: NCI/ADR-RES
Test protocol: NCI tumour cell line growth inhibition, 48 h
Active and inactive are the calls of the source. No stated cut-off is given here; in the data, active = GI50 up to about 1.1 µM and inactive = higher.
Measured GI50 by item
Quantity measured: GI50

O=C(/C=C/c1ccc(/C=C/C(=O)c2ccc(O)cc2)cc1)c1ccc(O)cc1 :: > 100 µM (inactive)
CCOC(=O)[C@@H]1C[C@H]1c1ccc(O)c(O)c1 :: 43.3 µM (inactive)
N#CCc1nc2cc(C(F)(F)F)ccc2s1 :: 55.7 µM (inactive)
COc1ccc2nc3c([N+](=O)[O-])ccc4c3c(c2c1)N(CCCN(C)C)C(=S)N4CCCN(C)C :: 6.62 µM (inactive)
CN1C(=O)C23CCCC2CC1(c1ccccc1)S3 (stereo unspecified) :: 64.9 µM (inactive)
COc1ccc(CC(N)c2ccc(OC)cc2)cc1 (stereo unspecified) :: > 100 µM (inactive)

---

Test system: HOP-62
Test protocol: NCI tumour cell line growth inhibition, 48 h
The source made the active and inactive calls. No stated cut-off is given here; in the data, active = GI50 up to about 1.1 µM and inactive = higher.
Outcome codes: label 1 = active, label 0 = inactive

O=[N+]([O-])c1ccc(NN/N=N/c2ccc(-c3nc4ccccc4s3)cc2)c([N+](=O)[O-])c1 :: label 0
CN(C)c1n/c(=N/c2ccc3c(c2)OCO3)ss1 :: label 0
O=S(O)CCCCCSSc1ccc(Cl)cc1 :: label 0
O=C1OC(=O)C2C1C(c1ccccc1[N+](=O)[O-])C=C(c1ccco1)N2c1ccncc1 (stereo unspecified) :: label 0
CCOC(=O)C(C)c1nc2cc(N3CCN(C)CC3)c(F)cc2[nH]c1=O (stereo unspecified) :: label 0
COC(=O)c1sc2c(c1C(=O)OC)/C(=N/c1ccc(OC)cc1)S/C2=N\c1ccc(OC)cc1 :: label 1
CSc1sc(=S)sc1SC :: label 0
CN1C(=O)C23CCCC2CC1(c1ccccc1)S3 (stereo unspecified) :: label 0
COc1cc(NS(C)(=O)=O)ccc1NCc1c[nH]c2ccc3ncccc3c12 :: label 0
O=C(Nc1ccc(Cl)cc1C(F)(F)F)C(=O)C1CCCS1(=O)=O (stereo unspecified) :: label 0
CC1=Nc2ccccc2NC(c2ccoc2)C1 (stereo unspecified) :: label 0

---

Test system: DMS-273
Test protocol: NCI tumour cell line growth inhibition, 48 h
Active and inactive are the calls of the source. Cut-off read from the data, not from the text of the source: active = GI50 up to about 1.1 µM and inactive = higher.
Outcome codes: t (active), f (inactive)

NS(=O)(=O)c1ccc(NC(=O)Cc2nc3ccccc3s2)cc1 :: f
CCC1(CC)C(=O)NC(=O)NC1=S :: f
CCC1OC(=O)C(C)C(OC2CC(C)(O)C(O)C(C)O2)C(C)C(O)C(C)(O)CC(C)C(=O)C(C)C(O)C1C (stereo unspecified) :: f
c1ccc(CNn2nnc3ccccc32)cc1 :: f
C[N+](C)(C)CC1CCCC(C[N+](C)(C)C)C1=NO (stereo unspecified) :: f
O=C(/C=C(\O)C(=O)O)/C=C(\O)c1ccc(Cl)cc1 :: f
NC(=S)N/N=C/c1ccc(OC(=O)COc2ccccc2Cl)cn1 :: f
C=C1C(=O)OC2CC(C)C3C4OC4C(O)C3(C)C(O)C12 (stereo unspecified) :: f
NC1=NS(=O)(=O)Nc2nc(-c3ccc(Cl)cc3)[nH]c21 :: f
O=c1c2ccccc2c(=O)c2c1cc(Cl)c1[nH]c3c([nH]c12)c(Cl)cc1c(=O)c2ccccc2c(=O)c13 :: f
O=C(OC1CCC(=C2SCCCS2)[C@H]1C1SCCCS1)c1ccccc1 (stereo partly specified) :: f
COc1cc(/C=C\c2ccc(C)cc2)cc(OC)c1OC :: t
COC(=O)[C@H](C)[C@H]1CC[C@@](C)([C@H]2CC3C(C)(C)[C@H]4CCC(C)=C[C@H]4C[C@@]3(C)O2)OO1 (stereo partly specified) :: f
COC1=C2C[C@H](O)C(C)C[C@@]2(OC)OC1=O (stereo partly specified) :: f
N=C(N)NS(=O)(=O)c1ccc(NC(=O)c2ccc(Cl)c3c(Nc4ccc(S(=O)(=O)N=C(N)N)cc4)c4ccccc4nc23)cc1 :: f
O=C(c1ccccc1)N1CCN2CCN=C(c3ccccc3)C21c1ccccc1 (stereo unspecified) :: f
COc1ccc(C(=O)O)c2c(=O)c3ccccc3[nH]c12 :: f
C=C1CC[C@@H]2C(C)(C)CCC[C@@]2(C)[C@@H]1Cc1cc(O)ccc1O :: f
O=C(O)c1ccc(C2C3C=CC(C3)C2[N+](=O)[O-])cc1 (stereo unspecified) :: f
CN(C)c1n/c(=N/c2ccc3c(c2)OCO3)ss1 :: f
CC1C[C@H](C)CC(C(O)CC2CC(=O)N(Cc3ccccc3)C(=O)C2)C1O (stereo partly specified) :: f

Data provenance: ChEMBL document CHEMBL1201862
